test-details: Protein binding in rat plasma
Type: ADME, cell-free
applied-conditions: read-out: PPB (converted)
measure: fraction unbound
Form: value (number only, do not type unit).

Ask: Which fraction unbound is listed for `CC(=O)N1CCN(c2cc(-c3ccccc3O)nnc2N)C[C@H]1C` ?
Result: 0.41

###

measured-on: SWI/SNF-related matrix-associated actin-dependent regulator of chromatin subfamily A member 4 (Homo sapiens)
test-details: Binding affinity to human SMARCA4 (A1448 to S1575 residues) expressed in bacterial expression system by bromoscan assay
measure: Kd (µM)
The reply should contain only the number, in µM.

| smiles | measure | quantitative-readout |
| --- | --- | --- |
| Nc1nnc2c([nH]c3ccccc32)c1-c1ccccc1 | Kd | 0.51 |

Now look at this entry.
Ask: Which Kd is listed for `Nc1nnc(-c2ccccc2)cc1-c1ccccc1` ?
Result: 10

###

test-details: Clearance in CD-1 mouse at 0.5 mg/kg, iv
Type: ADME, organism-based
applied-conditions: in vivo
measure: clearance (mL/min/kg)
The reply should contain only the number, in mL/min/kg.

Ask: Which clearance is listed for `CC(=O)N1CCN(c2cc(-c3ccccc3O)nnc2N)C[C@H]1C` ?
Result: 16

###

Entries annotated with measured pKd
measured-on: Protein polybromo-1 (Homo sapiens, UniProt Q86U86)
Sequence (Q86U86 whole entry, the tested form may be a part): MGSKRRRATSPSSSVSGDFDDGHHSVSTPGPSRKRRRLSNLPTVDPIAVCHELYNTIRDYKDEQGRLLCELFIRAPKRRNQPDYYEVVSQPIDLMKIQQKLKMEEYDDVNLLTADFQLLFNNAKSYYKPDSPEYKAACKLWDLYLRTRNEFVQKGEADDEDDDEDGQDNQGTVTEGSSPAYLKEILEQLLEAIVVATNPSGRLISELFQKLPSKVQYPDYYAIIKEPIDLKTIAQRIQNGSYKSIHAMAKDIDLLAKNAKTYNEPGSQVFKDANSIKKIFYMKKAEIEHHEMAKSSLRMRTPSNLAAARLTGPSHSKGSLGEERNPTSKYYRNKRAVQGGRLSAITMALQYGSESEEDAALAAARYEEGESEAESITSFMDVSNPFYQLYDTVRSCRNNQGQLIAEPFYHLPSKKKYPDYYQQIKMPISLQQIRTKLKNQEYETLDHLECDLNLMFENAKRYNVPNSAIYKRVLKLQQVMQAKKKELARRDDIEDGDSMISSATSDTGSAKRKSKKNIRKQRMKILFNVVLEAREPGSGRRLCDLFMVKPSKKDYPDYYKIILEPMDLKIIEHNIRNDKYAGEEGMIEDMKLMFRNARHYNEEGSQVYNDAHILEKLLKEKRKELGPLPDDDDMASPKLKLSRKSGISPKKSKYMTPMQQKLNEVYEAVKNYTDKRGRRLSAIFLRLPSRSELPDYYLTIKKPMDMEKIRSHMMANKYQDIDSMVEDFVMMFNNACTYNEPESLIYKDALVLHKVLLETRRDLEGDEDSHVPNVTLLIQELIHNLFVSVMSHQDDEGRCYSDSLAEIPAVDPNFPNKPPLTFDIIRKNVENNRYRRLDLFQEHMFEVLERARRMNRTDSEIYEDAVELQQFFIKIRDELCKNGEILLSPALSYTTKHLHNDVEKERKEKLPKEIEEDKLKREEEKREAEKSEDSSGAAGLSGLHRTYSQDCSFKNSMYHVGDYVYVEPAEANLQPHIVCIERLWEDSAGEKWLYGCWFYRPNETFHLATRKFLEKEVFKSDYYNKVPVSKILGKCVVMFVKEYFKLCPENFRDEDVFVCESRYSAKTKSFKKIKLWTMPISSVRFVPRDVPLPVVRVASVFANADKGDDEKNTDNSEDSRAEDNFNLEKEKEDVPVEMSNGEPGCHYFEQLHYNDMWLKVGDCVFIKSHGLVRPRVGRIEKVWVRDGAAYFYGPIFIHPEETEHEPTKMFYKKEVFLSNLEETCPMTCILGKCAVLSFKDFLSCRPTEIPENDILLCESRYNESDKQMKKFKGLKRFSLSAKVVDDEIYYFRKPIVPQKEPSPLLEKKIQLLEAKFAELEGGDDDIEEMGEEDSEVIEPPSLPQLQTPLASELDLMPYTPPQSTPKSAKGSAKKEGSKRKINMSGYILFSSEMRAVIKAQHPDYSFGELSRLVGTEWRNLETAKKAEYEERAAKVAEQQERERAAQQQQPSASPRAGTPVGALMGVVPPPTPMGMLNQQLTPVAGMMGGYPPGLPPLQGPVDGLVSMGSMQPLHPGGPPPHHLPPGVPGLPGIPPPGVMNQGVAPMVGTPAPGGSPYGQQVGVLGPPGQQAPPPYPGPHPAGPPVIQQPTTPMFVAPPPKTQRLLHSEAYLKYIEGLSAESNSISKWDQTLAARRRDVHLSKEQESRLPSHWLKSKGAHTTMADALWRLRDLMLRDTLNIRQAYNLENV
test-details: Binding affinity to human PBRM1 bromodomain 2 (S178 to E291 residues) expressed in bacterial expression system by bromoscan assay
Please keep in mind that pKd is minus log10 of the molar concentration; only the number is needed.

| smiles | pKd |
| --- | --- |
| Nc1nnc(-c2ccccc2)cc1-c1ccccc1 | 5.24 |

Ask: Param readout = pKd; param system = Protein polybromo-1 (Homo sapiens, UniProt Q86U86); param query = `Nc1nnc2c([nH]c3ccccc32)c1-c1ccccc1` ; response: value
Result: 6.77

###

test-details: Half life in CD-1 mouse at 0.5 mg/kg, iv
Type: ADME, organism-based
applied-conditions: in vivo
measure: half-life (h)
The reply should contain only the number, in h.

Ask: Which half-life is listed for `CC(=O)N1CCN(c2cc(-c3ccccc3O)nnc2N)C[C@H]1C` ?
Result: 1.1

###

measured-on: Cytochrome P450 2C19 (Homo sapiens)
Sequence (P33261 whole entry): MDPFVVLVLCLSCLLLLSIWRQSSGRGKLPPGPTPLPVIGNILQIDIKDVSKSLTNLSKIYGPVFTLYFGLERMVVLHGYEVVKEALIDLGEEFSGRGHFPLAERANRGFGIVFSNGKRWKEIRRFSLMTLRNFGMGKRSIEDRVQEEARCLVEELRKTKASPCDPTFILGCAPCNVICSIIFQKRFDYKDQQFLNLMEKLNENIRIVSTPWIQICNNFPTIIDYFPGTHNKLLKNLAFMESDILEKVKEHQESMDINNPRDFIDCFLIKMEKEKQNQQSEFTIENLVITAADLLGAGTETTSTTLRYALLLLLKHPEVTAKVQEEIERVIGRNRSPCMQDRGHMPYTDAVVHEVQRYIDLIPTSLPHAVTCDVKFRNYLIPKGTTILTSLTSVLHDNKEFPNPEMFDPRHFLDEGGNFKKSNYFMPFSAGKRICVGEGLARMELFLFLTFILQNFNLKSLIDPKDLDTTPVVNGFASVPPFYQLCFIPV
measure: IC50

Ask: Which IC50 is listed for `CC(=O)N1CCN(c2cc(-c3ccccc3O)nnc2N)C[C@H]1C` ?
Result: > 10 µM

###

measured-on: SWI/SNF-related matrix-associated actin-dependent regulator of chromatin subfamily A member 4 (Homo sapiens, UniProt P51532)
Sequence (P51532 whole entry, the tested form may be a part): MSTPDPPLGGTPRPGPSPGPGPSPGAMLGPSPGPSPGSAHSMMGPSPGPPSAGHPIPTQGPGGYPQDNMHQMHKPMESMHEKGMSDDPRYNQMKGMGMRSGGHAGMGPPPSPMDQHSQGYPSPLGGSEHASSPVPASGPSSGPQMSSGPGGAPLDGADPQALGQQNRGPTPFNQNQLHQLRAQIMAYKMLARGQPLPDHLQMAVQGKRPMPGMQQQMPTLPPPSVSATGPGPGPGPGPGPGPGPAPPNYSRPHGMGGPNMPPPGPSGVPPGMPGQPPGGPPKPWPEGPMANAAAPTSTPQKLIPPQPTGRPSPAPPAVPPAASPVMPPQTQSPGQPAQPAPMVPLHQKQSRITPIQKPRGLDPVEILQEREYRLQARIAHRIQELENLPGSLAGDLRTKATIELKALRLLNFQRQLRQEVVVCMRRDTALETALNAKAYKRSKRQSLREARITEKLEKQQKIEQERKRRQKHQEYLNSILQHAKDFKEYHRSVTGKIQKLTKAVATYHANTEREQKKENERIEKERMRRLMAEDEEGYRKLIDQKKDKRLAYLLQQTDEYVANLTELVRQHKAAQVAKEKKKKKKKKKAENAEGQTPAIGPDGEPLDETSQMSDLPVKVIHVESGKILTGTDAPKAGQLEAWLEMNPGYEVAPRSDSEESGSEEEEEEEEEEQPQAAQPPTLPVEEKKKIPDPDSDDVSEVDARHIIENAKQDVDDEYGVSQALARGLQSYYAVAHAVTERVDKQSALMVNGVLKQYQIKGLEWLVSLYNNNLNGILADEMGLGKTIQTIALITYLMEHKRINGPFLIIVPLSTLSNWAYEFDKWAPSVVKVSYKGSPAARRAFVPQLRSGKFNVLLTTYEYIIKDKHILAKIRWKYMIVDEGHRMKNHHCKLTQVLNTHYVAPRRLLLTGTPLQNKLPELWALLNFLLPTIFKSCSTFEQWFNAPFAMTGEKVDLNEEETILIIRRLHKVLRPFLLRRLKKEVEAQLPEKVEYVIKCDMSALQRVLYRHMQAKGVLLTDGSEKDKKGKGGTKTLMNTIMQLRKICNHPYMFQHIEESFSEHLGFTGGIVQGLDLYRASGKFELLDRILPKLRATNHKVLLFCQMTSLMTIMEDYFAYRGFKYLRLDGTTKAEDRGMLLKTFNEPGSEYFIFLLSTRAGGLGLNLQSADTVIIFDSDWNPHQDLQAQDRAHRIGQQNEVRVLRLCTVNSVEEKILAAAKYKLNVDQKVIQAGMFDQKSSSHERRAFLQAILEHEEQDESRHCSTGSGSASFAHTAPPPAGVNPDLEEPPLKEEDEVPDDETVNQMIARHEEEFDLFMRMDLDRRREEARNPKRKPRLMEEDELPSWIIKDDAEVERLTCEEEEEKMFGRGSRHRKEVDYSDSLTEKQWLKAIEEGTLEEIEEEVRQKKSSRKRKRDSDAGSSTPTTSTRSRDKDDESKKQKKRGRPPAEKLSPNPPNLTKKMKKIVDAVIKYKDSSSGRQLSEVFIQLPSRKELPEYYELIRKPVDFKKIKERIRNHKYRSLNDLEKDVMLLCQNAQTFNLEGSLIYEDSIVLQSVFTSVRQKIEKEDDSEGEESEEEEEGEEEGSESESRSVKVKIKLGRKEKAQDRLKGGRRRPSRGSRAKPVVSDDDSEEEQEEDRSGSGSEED
measure: pIC50
Please keep in mind that pIC50 is minus log10 of the molar concentration; only the number is needed.

Ask: Which pIC50 is listed for `Nc1nnc(-c2ccccc2)cc1-c1ccccc1` ?
Result: 4.24

Ask: Which pIC50 is listed for `Nc1nnc2c([nH]c3ccccc32)c1-c1ccccc1` ?
Result: 5.28

###

test-details: Protein binding in mouse plasma
Format: ADME, cell-free
applied-conditions: read-out: PPB (converted)
measure: fraction unbound
Form: value (number only, do not type unit).

Ask: Which fraction unbound is listed for `CC(=O)N1CCN(c2cc(-c3ccccc3O)nnc2N)C[C@H]1C` ?
Result: 0.31

###

measured-on: Protein polybromo-1 (Homo sapiens)
test-details: Binding affinity to human PBRM1 bromodomain 5 (S645 to D766 residues) expressed in bacterial expression system by bromoscan assay
measure: Kd (µM)
The reply should contain only the number, in µM.

| smiles | Kd / µM |
| --- | --- |
| Nc1nnc(-c2ccccc2)cc1-c1ccccc1 | 27 |

Ask: Which Kd is listed for `Nc1nnc2c([nH]c3ccccc32)c1-c1ccccc1` ?
Result: 0.58
